molecular target: N-glycosylase/DNA lyase (Homo sapiens) (UniProt O15527); conditions: Compound Concentration 10.0 uM, Hit No;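 also: OGG1 cleavage of a quenched duplex DNA oligonucleotide, coupled to APE1 for strand incision, read as fluorescence at 594 nm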
Sequence (O15527 whole entry): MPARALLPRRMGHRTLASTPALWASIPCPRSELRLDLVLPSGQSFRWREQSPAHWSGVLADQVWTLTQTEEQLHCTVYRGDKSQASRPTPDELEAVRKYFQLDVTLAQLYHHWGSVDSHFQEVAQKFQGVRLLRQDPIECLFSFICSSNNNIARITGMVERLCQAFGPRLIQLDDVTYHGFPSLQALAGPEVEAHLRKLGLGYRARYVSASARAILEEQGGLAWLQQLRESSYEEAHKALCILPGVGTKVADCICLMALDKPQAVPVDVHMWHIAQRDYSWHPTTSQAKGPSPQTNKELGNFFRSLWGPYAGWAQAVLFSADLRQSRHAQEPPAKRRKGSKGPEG
Description: Inhibition of OGG1 by quantifying inhibition of OGG1-mediated cleavage and dissociation of quenched duplex DNA oligonucleotides, measured as fluorescence at 594 nm. To generate a functional strand incision and increase turn-over this assay is coupled to APE1.
Catalogue of compounds with associated inhibition
Could you give me the number in %? Just the number is fine.

Consider the following illustrative entries.
compound	inhibition / %
COc1ccc2c(O[C@@H]3C[C@H]4C(=O)N[C@]5(C(=O)O)CC5/C=C\CCCCC[C@H](NC(=O)OC5CCCC5)C(=O)N4C3)cc(-c3csc(NC(=O)C(C)C)n3)nc2c1C (some centres not stated)	55.8
C[C@@H](OC[C@@]1(c2ccccc2)CC[C@]2(CCC(=O)N2)CN1)c1cc(C(F)(F)F)cc(C(F)(F)F)c1	-0.784
COc1ccc(NS(=O)(=O)c2sc3ccc(Cl)cc3c2C)cc1N1CCNCC1	-6.55
Cc1cc(C)cc(C(=O)N(C)[C@H](Cc2ccc(-c3ccccc3)cc2)C(=O)N[C@@H](Cc2c[nH]c3ccccc23)C(=O)O)c1	16.2

Which value of inhibition has been reported for CC[C@H](NC(=O)c1c(C)c(-c2ccccc2)nc2ccccc12)c1ccccc1 in the records? -1.61

Entry CCc1nn2c(C)cc(C)nc2c1Cc1ccc(-c2nnc(C3CCNCC3)o2)cc1 has what inhibition? -9.16

// returns reported inhibition for input Cc1cccc(NC(=O)N[C@@H]2N=C(c3ccccc3)c3ccccc3N(C)C2=O)c1 -6.8

====

target: Single-strand selective monofunctional uracil DNA glycosylase (Homo sapiens); details: Compound Concentration 10.0 uM, Hit No;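 also: enzymatic SMUG1 assay coupled with APE1, reading fluorescence at 594 nm released when a quenched double-stranded DNA oligonucleotide substrate is cleaved and separated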
Description: Inhibition of SMUG1 by quantifying inhibition of SMUG1-mediated cleavage and dissociation of quenched duplex DNA oligonucleotides, measured as fluorescence at 594 nm. To generate a functional strand incision and increase turn-over this assay is coupled to APE1.
Entries and their measured inhibition follow.
Answer format: numeric, % implied, no suffix.

A selection of reference data follows.
structure notation	reported metric	measured
CC[C@H]1OC(=O)[C@H](C)[C@@H](O[C@H]2C[C@@](C)(OC)[C@@H](O)[C@H](C)O2)[C@H](C)[C@@H](O[C@@H]2O[C@H](C)C[C@H](N(C)C)[C@H]2O)[C@@]2(C)CC(C)=C(O2)[C@H](C)[C@@H](O)[C@]1(C)O	inhibition	-6.48
O=c1c(Br)ccc2n1C[C@@H]1CNC[C@H]2C1	inhibition	8.97
Cc1cc(NC(=O)c2cccc(S(F)(F)(F)(F)F)c2)cc(-n2ccn3nc(-c4cccnc4)cc23)c1	inhibition	3.64

Attention now shifts to the item below.
For CCOC(=O)c1cc(C#N)c(N2CCC(C(=O)NS(=O)(=O)Cc3ccccc3)CC2)nc1C , what is its reported inhibition? 7.04

====

molecular target: DNA-3-methyladenine glycosylase (Homo sapiens); conditions: Compound Concentration 10.0 uM, Hit No
Description: Inhibition of MPG by quantifying inhibition of MPG-mediated cleavage and dissociation of quenched duplex DNA oligonucleotides, measured as fluorescence at 594 nm. To generate a functional strand incision and increase turn-over this assay is coupled to APE1.
reported metric: inhibition (%)
// units = %; emit number, no label

Answered examples (10):
> print(dat)
                                    molecule                         target.under.test  reported.metric  unit.abbreviation  measured
 1  COc1cc(/C=C/C(=O)NCCn2c(C)cc3ccccc32)cc(OC)c1OC  DNA-3-methyladenine glycosylase (Homo sapiens)       inhibition                  %      27.9
 2          NC(=O)NN=Cc1ccc(Oc2ccc(F)cc2)cc1  DNA-3-methyladenine glycosylase (Homo sapiens)       inhibition                  %      2.76
 3  Cc1ccc(OCC(O)C(C)NC(C)C)c2c1CCC2 (configuration not stated)  DNA-3-methyladenine glycosylase (Homo sapiens)       inhibition                  %      6.31
 4  COc1cc(C(=O)NS(=O)(=O)c2ccccc2C)ccc1Cc1cn(C)c2ccc(NC(=O)OC3CCCC3)cc12  DNA-3-methyladenine glycosylase (Homo sapiens)       inhibition                  %      33.1
 5  N#Cc1ccc(O[C@@H]2c3ccccc3C[C@H]2N2CCC[C@@H](N)C2)c(Cl)c1  DNA-3-methyladenine glycosylase (Homo sapiens)       inhibition                  %     -4.18
 6  CC[S+]([O-])c1nc(-c2cccc(OCc3ccccc3)c2)cc(C(F)(F)F)n1 (configuration not stated)  DNA-3-methyladenine glycosylase (Homo sapiens)       inhibition                  %     -6.11
 7  O=C1CSC(=O)N1C(CCc1ccncc1)COc1ccc(-c2cccc([N+](=O)[O-])c2)cc1 (configuration not stated)  DNA-3-methyladenine glycosylase (Homo sapiens)       inhibition                  %     -5.43
 8  COc1cc(C(C)C)c(Oc2cnc(NC(CO)CO)nc2N)cc1I  DNA-3-methyladenine glycosylase (Homo sapiens)       inhibition                  %     -3.99
 9  COC1(C[S@@+]([O-])c2ccccc2)CCN(CCc2c[nH]c3ccc(F)cc23)CC1  DNA-3-methyladenine glycosylase (Homo sapiens)       inhibition                  %     -3.99
10  CNC(=O)[C@H]1O[C@@H](n2cnc3c(NCc4cccc(I)c4)ncnc32)[C@H](O)[C@@H]1O  DNA-3-methyladenine glycosylase (Homo sapiens)       inhibition                  %      2.83

Return inhibition measured with DNA-3-methyladenine glycosylase (Homo sapiens) given this molecule: COc1ccc(CCN(C)CCCC(C#N)(c2cc(OC)c(OC)c(OC)c2)C(C)C)cc1OC (configuration not stated) -3.7

Reported inhibition for DNA-3-methyladenine glycosylase (Homo sapiens), given O=C(O)c1ccc(S(=O)(=O)N(Cc2ccc(OC(F)(F)F)cc2)c2ncc(C(F)(F)F)cc2Cl)cc1 ? 12.7

For the record COC1CCN(c2cccc(-c3cc(NC(C)=O)nc(-n4nc(C)cc4C)n3)n2)CC1 , what value of inhibition is listed for DNA-3-methyladenine glycosylase (Homo sapiens)? 6.5

Any idea what inhibition came out for Cn1cc(Cl)c2c(Oc3c(F)cc(Nc4cc(Cl)nc(N)n4)cc3F)ccnc21 on DNA-3-methyladenine glycosylase (Homo sapiens)? -1.23

Item: CNC[C@H](O)c1ccc(O)c(O)c1 Test system: DNA-3-methyladenine glycosylase (Homo sapiens) Read-out: inhibition Value: ? 10.2

Provide value of inhibition for this record tested with DNA-3-methyladenine glycosylase (Homo sapiens): CCOc1ccc(Cc2nc3cc(C(=O)N(CC)CC)ccc3n2CC2CCCCC2)cc1 -2.6

Query for DNA-3-methyladenine glycosylase (Homo sapiens): what inhibition does the record show for Fc1cccc(/C=N/N=C/c2cccc(F)c2)c1 ? -2.88
